Tested on: IL-1β production by mouse peritoneal macrophages
test_method_notes: IL-1β production by mouse peritoneal macrophages (ELISA)
Assay type: cell-based
condition_label: dose 0.05 μM; mouse peritoneal macrophages, 48 h, ELISA
Peptide text beside a SMILES is read from it. * marks the point of attachment. X72 = O=C1C=CC(=O)N1c1ccccc1CCCCCCCCCCC(=O)*; X52 = O=C1C=CC(=O)N1c1ccccc1CCCCCCCC(=O)*; X61 = O=C1C=CC(=O)N1c1cccc(CCCC(=O)*)c1
I'd appreciate it if you could supply IL-1β values for the items below.
Numbers only, in pg/mL.

[[record]]
compound = "C[C@H](NC(=O)CNC(=O)[C@H](CCCNC(=N)N)NC(=O)CCCCCCCCCCc1ccccc1N1C(=O)C=CC1=O)C(=O)N[C@@H](CC(=O)O)C(=O)N[C@@H](CCCNC(=N)N)C(=O)N[C@@H](C)C(=O)NCC(=O)NCC(=O)NCC(=O)NCC(=O)N[C@@H](CCCNC(=N)N)C(=O)NCC(=O)N[C@@H](CC(=O)O)C(=O)O [X22] (X72-RGADRAGGGGRGD-OH)"
unit_symbol = "pg/mL"
reported_value = 663.21

[[record]]
compound = "C[C@H](NC(=O)CNC(=O)[C@H](CCCNC(=N)N)NC(=O)CCCCCCCc1ccccc1N1C(=O)C=CC1=O)C(=O)N[C@@H](CC(=O)O)C(=O)N[C@@H](CCCNC(=N)N)C(=O)N[C@@H](C)C(=O)NCC(=O)NCC(=O)NCC(=O)NCC(=O)N[C@@H](CCCNC(=N)N)C(=O)NCC(=O)N[C@@H](CC(=O)O)C(=O)O [X19] (X52-RGADRAGGGGRGD-OH)"
unit_symbol = "pg/mL"
reported_value = 591.13


Please turn your attention to the following entry.
Lab note: compound C[C@H](NC(=O)CNC(=O)[C@H](CCCNC(=N)N)NC(=O)CCCc1cccc(N2C(=O)C=CC2=O)c1)C(=O)N[C@@H](CC(=O)O)C(=O)N[C@@H](CCCNC(=N)N)C(=O)N[C@@H](C)C(=O)NCC(=O)NCC(=O)NCC(=O)NCC(=O)N[C@@H](CCCNC(=N)N)C(=O)NCC(=O)N[C@@H](CC(=O)O)C(=O)O [X27] (X61-RGADRAGGGGRGD-OH) tested on IL-1β production by mouse peritoneal macrophages; recorded IL-1β was 697.32

* * *

test_method_notes: Half-lives and pharmacokinetic parameters of polypeptides vs HM-1
condition_label: in vivo
Peptide text beside a SMILES is read from it. * marks the point of attachment. X22 = O=C1C=CC(=O)N1CCOCCOCCOCCOCCOCCOCCCCCC(=O)*; X26 = O=C1C=CC(=O)N1CCOCCOCCOCCOCCOCCCCC(=O)*; X20 = O=C1C=CC(=O)N1CCOCCOCCOCCOCCOCCCC(=O)*; X4 = O=C1C=CC(=O)N1CCOCCOCCOCCOCCCCCCCC(=O)*; X19 = O=C1C=CC(=O)N1CCOCCOCCOCCOCCOCC(=O)*; X52 = O=C1C=CC(=O)N1c1ccccc1CCCCCCCC(=O)*; X6 = O=C1C=CC(=O)N1CCOCCOCCOCCCCCCCC(=O)*; X50 = O=C1C=CC(=O)N1c1ccc(CC(=O)*)cc1; X81 = O=C1C=CC(=O)N1c1ccccc1CCCC(=O)*; X80 = O=C1C=CC(=O)N1c1ccccc1CCC(=O)*; X82 = O=C1C=CC(=O)N1CCCCCCCCC(=O)*
measured_metric: clearance (mL/min/kg)
Numbers only, in mL/min/kg.

# count of solved cases: 3
[[record]]
molecule = "C[C@H](NC(=O)CNC(=O)[C@H](CCCNC(=N)N)NC(=O)CCCCCOCCOCCOCCOCCOCCOCCN1C(=O)C=CC1=O)C(=O)N[C@@H](CC(=O)O)C(=O)N[C@@H](CCCNC(=N)N)C(=O)N[C@@H](C)C(=O)NCC(=O)NCC(=O)NCC(=O)NCC(=O)N[C@@H](CCCNC(=N)N)C(=O)NCC(=O)N[C@@H](CC(=O)O)C(=O)O [X88] (X22-RGADRAGGGGRGD-OH)"
reported_value = 0.523

[[record]]
molecule = "C[C@H](NC(=O)CNC(=O)[C@H](CCCNC(=N)N)NC(=O)CCCOCCOCCOCCOCCOCCN1C(=O)C=CC1=O)C(=O)N[C@@H](CC(=O)O)C(=O)N[C@@H](CCCNC(=N)N)C(=O)N[C@@H](C)C(=O)NCC(=O)NCC(=O)NCC(=O)NCC(=O)N[C@@H](CCCNC(=N)N)C(=O)NCC(=O)N[C@@H](CC(=O)O)C(=O)O [X79] (X20-RGADRAGGGGRGD-OH)"
reported_value = 0.547

[[record]]
molecule = "C[C@H](NC(=O)CNC(=O)[C@H](CCCNC(=N)N)NC(=O)CCc1ccccc1N1C(=O)C=CC1=O)C(=O)N[C@@H](CC(=O)O)C(=O)N[C@@H](CCCNC(=N)N)C(=O)N[C@@H](C)C(=O)NCC(=O)NCC(=O)NCC(=O)NCC(=O)N[C@@H](CCCNC(=N)N)C(=O)NCC(=O)N[C@@H](CC(=O)O)C(=O)O [X14] (X80-RGADRAGGGGRGD-OH)"
reported_value = 0.573


Consider the following items and state reported clearance for each.
1. C[C@H](NC(=O)CNC(=O)[C@H](CCCNC(=N)N)NC(=O)CCCCCCCOCCOCCOCCOCCN1C(=O)C=CC1=O)C(=O)N[C@@H](CC(=O)O)C(=O)N[C@@H](CCCNC(=N)N)C(=O)N[C@@H](C)C(=O)NCC(=O)NCC(=O)NCC(=O)NCC(=O)N[C@@H](CCCNC(=N)N)C(=O)NCC(=O)N[C@@H](CC(=O)O)C(=O)O [X76] (X4-RGADRAGGGGRGD-OH)
2. C[C@H](NC(=O)CNC(=O)[C@H](CCCNC(=N)N)NC(=O)COCCOCCOCCOCCOCCN1C(=O)C=CC1=O)C(=O)N[C@@H](CC(=O)O)C(=O)N[C@@H](CCCNC(=N)N)C(=O)N[C@@H](C)C(=O)NCC(=O)NCC(=O)NCC(=O)NCC(=O)N[C@@H](CCCNC(=N)N)C(=O)NCC(=O)N[C@@H](CC(=O)O)C(=O)O [X77] (X19-RGADRAGGGGRGD-OH)
3. C[C@H](NC(=O)CNC(=O)[C@H](CCCNC(=N)N)NC(=O)CCCCCCCCN1C(=O)C=CC1=O)C(=O)N[C@@H](CC(=O)O)C(=O)N[C@@H](CCCNC(=N)N)C(=O)N[C@@H](C)C(=O)NCC(=O)NCC(=O)NCC(=O)NCC(=O)N[C@@H](CCCNC(=N)N)C(=O)NCC(=O)N[C@@H](CC(=O)O)C(=O)O [X8] (X82-RGADRAGGGGRGD-OH)
4. C[C@H](NC(=O)CNC(=O)[C@H](CCCNC(=N)N)NC(=O)CCCCOCCOCCOCCOCCOCCN1C(=O)C=CC1=O)C(=O)N[C@@H](CC(=O)O)C(=O)N[C@@H](CCCNC(=N)N)C(=O)N[C@@H](C)C(=O)NCC(=O)NCC(=O)NCC(=O)NCC(=O)N[C@@H](CCCNC(=N)N)C(=O)NCC(=O)N[C@@H](CC(=O)O)C(=O)O [X80] (X26-RGADRAGGGGRGD-OH)

Response line:
1: 0.492; 2: 0.482; 3: 0.597; 4: 0.483

Consider the following items and state reported clearance for each.
1. C[C@H](NC(=O)CNC(=O)[C@H](CCCNC(=N)N)NC(=O)CCCCCCCc1ccccc1N1C(=O)C=CC1=O)C(=O)N[C@@H](CC(=O)O)C(=O)N[C@@H](CCCNC(=N)N)C(=O)N[C@@H](C)C(=O)NCC(=O)NCC(=O)NCC(=O)NCC(=O)N[C@@H](CCCNC(=N)N)C(=O)NCC(=O)N[C@@H](CC(=O)O)C(=O)O [X19] (X52-RGADRAGGGGRGD-OH)
2. C[C@H](NC(=O)CNC(=O)[C@H](CCCNC(=N)N)NC(=O)CCCc1ccccc1N1C(=O)C=CC1=O)C(=O)N[C@@H](CC(=O)O)C(=O)N[C@@H](CCCNC(=N)N)C(=O)N[C@@H](C)C(=O)NCC(=O)NCC(=O)NCC(=O)NCC(=O)N[C@@H](CCCNC(=N)N)C(=O)NCC(=O)N[C@@H](CC(=O)O)C(=O)O [X15] (X81-RGADRAGGGGRGD-OH)

Response line:
[0.518, 0.485]

Consider the following items and state reported clearance for each.
1. C[C@H](NC(=O)CNC(=O)[C@H](CCCNC(=N)N)NC(=O)Cc1ccc(N2C(=O)C=CC2=O)cc1)C(=O)N[C@@H](CC(=O)O)C(=O)N[C@@H](CCCNC(=N)N)C(=O)N[C@@H](C)C(=O)NCC(=O)NCC(=O)NCC(=O)NCC(=O)N[C@@H](CCCNC(=N)N)C(=O)NCC(=O)N[C@@H](CC(=O)O)C(=O)O [X37] (X50-RGADRAGGGGRGD-OH)
2. C[C@H](NC(=O)CNC(=O)[C@H](CCCNC(=N)N)NC(=O)CCCCCCCOCCOCCOCCN1C(=O)C=CC1=O)C(=O)N[C@@H](CC(=O)O)C(=O)N[C@@H](CCCNC(=N)N)C(=O)N[C@@H](C)C(=O)NCC(=O)NCC(=O)NCC(=O)NCC(=O)N[C@@H](CCCNC(=N)N)C(=O)NCC(=O)N[C@@H](CC(=O)O)C(=O)O [X69] (X6-RGADRAGGGGRGD-OH)

Response line:
1: 0.612; 2: 0.62
